Type: physicochemical
Assay setup: 25° C., 60% Rh, 1 month
Where a SMILES comes first, the peptide text is derived from it. [ ]: non-standard residue; d: D form. The star is where a group is joined. Gly(N-(2R-Ph-propyl)) = C[C@@H](CNCC(=O)O)c1ccccc1; Piperidin1yl(4-NH2,4-COOH) = NC1(C(=O)O)CCN(*)CC1
Test readout: Purity % (%)

* CC(C)C[C@@H](NC(=O)[C@@H](Cc1ccccc1)NC(=O)CNC[C@H](C)c1ccccc1)C(=O)N[C@H](CCCCN)C(=O)N1CCC(N)(C(=O)O)CC1 [Embodiment 9] (H-[Gly(N-(2R-Ph-propyl))][dF][dL][dK]-{Piperidin1yl(4-NH2,4-COOH)}) | 99.46
* CC(C)C[C@@H](NC(=O)[C@@H](Cc1ccccc1)NC(=O)CNC[C@H](C)c1ccccc1)C(=O)N[C@H](CCCCN)C(=O)N1CCC(N)(C(=O)O)CC1 [Embodiment 3] (H-[Gly(N-(2R-Ph-propyl))][dF][dL][dK]-{Piperidin1yl(4-NH2,4-COOH)}) | 99.62
* CC(C)C[C@@H](NC(=O)[C@@H](Cc1ccccc1)NC(=O)CNC[C@H](C)c1ccccc1)C(=O)N[C@H](CCCCN)C(=O)N1CCC(N)(C(=O)O)CC1 [Embodiment 15] (H-[Gly(N-(2R-Ph-propyl))][dF][dL][dK]-{Piperidin1yl(4-NH2,4-COOH)}) | 99.64
* CC(C)C[C@@H](NC(=O)[C@@H](Cc1ccccc1)NC(=O)CNC[C@H](C)c1ccccc1)C(=O)N[C@H](CCCCN)C(=O)N1CCC(N)(C(=O)O)CC1 [Embodiment 11] (H-[Gly(N-(2R-Ph-propyl))][dF][dL][dK]-{Piperidin1yl(4-NH2,4-COOH)}) | 99.50

---

Assay type: physicochemical
Assay setup: 25° C., 60% RH, nitrogen protection, initial
Where a SMILES comes first, the peptide text is derived from it. [ ]: non-standard residue; d: D form. The star is where a group is joined. Gly(N-(2R-Ph-propyl)) = C[C@@H](CNCC(=O)O)c1ccccc1; Piperidin1yl(4-NH2,4-COOH) = NC1(C(=O)O)CCN(*)CC1
Test readout: Purity % (%)

• CC(C)C[C@@H](NC(=O)[C@@H](Cc1ccccc1)NC(=O)CNC[C@H](C)c1ccccc1)C(=O)N[C@H](CCCCN)C(=O)N1CCC(N)(C(=O)O)CC1 [Embodiment 3] (H-[Gly(N-(2R-Ph-propyl))][dF][dL][dK]-{Piperidin1yl(4-NH2,4-COOH)}) = 99.59
• CC(C)C[C@@H](NC(=O)[C@@H](Cc1ccccc1)NC(=O)CNC[C@H](C)c1ccccc1)C(=O)N[C@H](CCCCN)C(=O)N1CCC(N)(C(=O)O)CC1 [Embodiment 11] (H-[Gly(N-(2R-Ph-propyl))][dF][dL][dK]-{Piperidin1yl(4-NH2,4-COOH)}) = 99.50
• CC(C)C[C@@H](NC(=O)[C@@H](Cc1ccccc1)NC(=O)CNC[C@H](C)c1ccccc1)C(=O)N[C@H](CCCCN)C(=O)N1CCC(N)(C(=O)O)CC1 [Embodiment 9] (H-[Gly(N-(2R-Ph-propyl))][dF][dL][dK]-{Piperidin1yl(4-NH2,4-COOH)}) = 99.54
• CC(C)C[C@@H](NC(=O)[C@@H](Cc1ccccc1)NC(=O)CNC[C@H](C)c1ccccc1)C(=O)N[C@H](CCCCN)C(=O)N1CCC(N)(C(=O)O)CC1 [Embodiment 15] (H-[Gly(N-(2R-Ph-propyl))][dF][dL][dK]-{Piperidin1yl(4-NH2,4-COOH)}) = 99.64

---

Measured Purity % by item
Format: physicochemical
Assay setup: 4500 Lux, 0 days (initial)
Protocol: Samples of the compound represented by formula (I) and acetate, hydrochloride, citrate and phosphate of the compound represented by formula (I) were respectively placed open and evenly spread, so that the stability of the samples were investigated under the conditions of room temperature, heating (40° C., 60° C.), illumination (4500Lux) and high humidity (RH75% and RH90%). The sampling period is 20 days.
Where a SMILES comes first, the peptide text is derived from it. [ ]: non-standard residue; d: D form. The star is where a group is joined. Gly(N-(2R-Ph-propyl)) = C[C@@H](CNCC(=O)O)c1ccccc1; Piperidin1yl(4-NH2,4-COOH) = NC1(C(=O)O)CCN(*)CC1
Test readout: Purity % (%)

* CC(C)C[C@@H](NC(=O)[C@@H](Cc1ccccc1)NC(=O)CNC[C@H](C)c1ccccc1)C(=O)N[C@H](CCCCN)C(=O)N1CCC(N)(C(=O)O)CC1 [Embodiment 14] (H-[Gly(N-(2R-Ph-propyl))][dF][dL][dK]-{Piperidin1yl(4-NH2,4-COOH)}) | 99.19
* CC(C)C[C@@H](NC(=O)[C@@H](Cc1ccccc1)NC(=O)CNC[C@H](C)c1ccccc1)C(=O)N[C@H](CCCCN)C(=O)N1CCC(N)(C(=O)O)CC1 [Embodiment 4] (H-[Gly(N-(2R-Ph-propyl))][dF][dL][dK]-{Piperidin1yl(4-NH2,4-COOH)}) | 97.70

---

Measured Purity % by item
Format: physicochemical
Assay setup: 4500 Lux, 0 days (initial)
Experimental: Samples of the compound represented by formula (I) and acetate, hydrochloride, citrate and phosphate of the compound represented by formula (I) were respectively placed open and evenly spread, so that the stability of the samples were investigated under the conditions of room temperature, heating (40° C., 60° C.), illumination (4500Lux) and high humidity (RH75% and RH90%). The sampling period is 20 days.
Where a SMILES comes first, the peptide text is derived from it. [ ]: non-standard residue; d: D form. The star is where a group is joined. Gly(N-(2R-Ph-propyl)) = C[C@@H](CNCC(=O)O)c1ccccc1; Piperidin1yl(4-NH2,4-COOH) = NC1(C(=O)O)CCN(*)CC1
Test readout: Purity % (%)

• CC(C)C[C@@H](NC(=O)[C@@H](Cc1ccccc1)NC(=O)CNC[C@H](C)c1ccccc1)C(=O)N[C@H](CCCCN)C(=O)N1CCC(N)(C(=O)O)CC1 [Embodiment 6] (H-[Gly(N-(2R-Ph-propyl))][dF][dL][dK]-{Piperidin1yl(4-NH2,4-COOH)}) = 99.32
• CC(C)C[C@@H](NC(=O)[C@@H](Cc1ccccc1)NC(=O)CNC[C@H](C)c1ccccc1)C(=O)N[C@H](CCCCN)C(=O)N1CCC(N)(C(=O)O)CC1 [Embodiment 12] (H-[Gly(N-(2R-Ph-propyl))][dF][dL][dK]-{Piperidin1yl(4-NH2,4-COOH)}) = 97.04
• CC(C)C[C@@H](NC(=O)[C@@H](Cc1ccccc1)NC(=O)CNC[C@H](C)c1ccccc1)C(=O)N[C@H](CCCCN)C(=O)N1CCC(N)(C(=O)O)CC1 [Embodiment 20] (H-[Gly(N-(2R-Ph-propyl))][dF][dL][dK]-{Piperidin1yl(4-NH2,4-COOH)}) = 99.68
• CC(C)C[C@@H](NC(=O)[C@@H](Cc1ccccc1)NC(=O)CNC[C@H](C)c1ccccc1)C(=O)N[C@H](CCCCN)C(=O)N1CCC(N)(C(=O)O)CC1 [Embodiment 15] (H-[Gly(N-(2R-Ph-propyl))][dF][dL][dK]-{Piperidin1yl(4-NH2,4-COOH)}) = 96.32
• CC(C)C[C@@H](NC(=O)[C@@H](Cc1ccccc1)NC(=O)CNC[C@H](C)c1ccccc1)C(=O)N[C@H](CCCCN)C(=O)N1CCC(N)(C(=O)O)CC1 [Embodiment 13] (H-[Gly(N-(2R-Ph-propyl))][dF][dL][dK]-{Piperidin1yl(4-NH2,4-COOH)}) = 97.39
• CC(C)C[C@@H](NC(=O)[C@@H](Cc1ccccc1)NC(=O)CNC[C@H](C)c1ccccc1)C(=O)N[C@H](CCCCN)C(=O)N1CCC(N)(C(=O)O)CC1 [Embodiment 2] (H-[Gly(N-(2R-Ph-propyl))][dF][dL][dK]-{Piperidin1yl(4-NH2,4-COOH)}) = 97.65
• CC(C)C[C@@H](NC(=O)[C@@H](Cc1ccccc1)NC(=O)CNC[C@H](C)c1ccccc1)C(=O)N[C@H](CCCCN)C(=O)N1CCC(N)(C(=O)O)CC1 [Embodiment 9] (H-[Gly(N-(2R-Ph-propyl))][dF][dL][dK]-{Piperidin1yl(4-NH2,4-COOH)}) = 96.50

---

Assay type: physicochemical
Assay setup: 25° C., 5 days
Where a SMILES comes first, the peptide text is derived from it. [ ]: non-standard residue; d: D form. The star is where a group is joined. Gly(N-(2R-Ph-propyl)) = C[C@@H](CNCC(=O)O)c1ccccc1; Piperidin1yl(4-NH2,4-COOH) = NC1(C(=O)O)CCN(*)CC1
Test readout: Purity % (%)

- CC(C)C[C@@H](NC(=O)[C@@H](Cc1ccccc1)NC(=O)CNC[C@H](C)c1ccccc1)C(=O)N[C@H](CCCCN)C(=O)N1CCC(N)(C(=O)O)CC1 [Embodiment 12] (H-[Gly(N-(2R-Ph-propyl))][dF][dL][dK]-{Piperidin1yl(4-NH2,4-COOH)}): 96.93
- CC(C)C[C@@H](NC(=O)[C@@H](Cc1ccccc1)NC(=O)CNC[C@H](C)c1ccccc1)C(=O)N[C@H](CCCCN)C(=O)N1CCC(N)(C(=O)O)CC1 [Embodiment 6] (H-[Gly(N-(2R-Ph-propyl))][dF][dL][dK]-{Piperidin1yl(4-NH2,4-COOH)}): 99.27
- CC(C)C[C@@H](NC(=O)[C@@H](Cc1ccccc1)NC(=O)CNC[C@H](C)c1ccccc1)C(=O)N[C@H](CCCCN)C(=O)N1CCC(N)(C(=O)O)CC1 [Embodiment 2] (H-[Gly(N-(2R-Ph-propyl))][dF][dL][dK]-{Piperidin1yl(4-NH2,4-COOH)}): 97.64
- CC(C)C[C@@H](NC(=O)[C@@H](Cc1ccccc1)NC(=O)CNC[C@H](C)c1ccccc1)C(=O)N[C@H](CCCCN)C(=O)N1CCC(N)(C(=O)O)CC1 [Embodiment 4] (H-[Gly(N-(2R-Ph-propyl))][dF][dL][dK]-{Piperidin1yl(4-NH2,4-COOH)}): 97.56
